test system: BT-549 breast; experiment: NCI-60 one-dose screen, 48 h; settings: 10 µM unless noted
About 83,000 compounds went through this panel and 20% of them were active in at least one assay; those are over-represented in the sample as a whole. The source made the active and inactive calls. The calls were made as follows: active = growth percent below 10; inactive = the rest.
Outcome (select one): active, inactive

In [3]: df
Out[3]:
                         compound  classification
0  CCCCNc1ccc(C#N)c(OCCN(CC)CC)c1        inactive

Status in this test for N#Cc1c(N)nnn1Cc1cc(=O)oc2c1ccc1ccccc12 ?
inactive

Give the logged outcome of this assay for the following compound: O=C1CC(N2C(=O)/C(=C/C(Cl)=C\c3ccc([N+](=O)[O-])cc3)SC2=S)C(=O)N1c1ccc(Cl)cc1 (centres undefined)
active

Test call for this compound, please: O=c1oc2c(cnc3ccccc32)cc1-c1ccsc1
inactive

Answer briefly: the call reported for CCc1ccc(C(=O)/C=C/C23c4ccccc4C(c4ccccc42)C2C(=O)NC(=O)C23)cc1 (centres undefined) in this assay.
active

What outcome does the record of this test show for N#Cc1c(-c2cccs2)cc(-c2cccnc2)[nH]c1=O ?
inactive

Per the records of this test, what outcome belongs to COc1ccc(-c2cn(-c3cc(OC)c(OC)c(OC)c3)c(=O)n2C(C)=O)cc1 ?
inactive

---

Give growth for every item shown.
system: SF-539 CNS; assay: NCI-60 one-dose screen, 48 h (100 = growth as untreated, 0 = no growth, -100 = all killed); conditions: 10 µM unless noted
The panel holds about 83,000 compounds, 20% with a hit somewhere; the sample as a whole holds those more often.
Numbers only, in %.

>>> print(df.to_string())
                                   compound  readout_name   val
0  CC1=C(C(=O)OC(C)C)C(c2ccc3c(c2)OCO3)NC(=S)N1 (stereo not drawn)        growth  98.9
1  C=C(C)[C@@H]1CC[C@]2(C)[C@H](CC=C3[C@@H]4[C@H](C)[C@@H](C)CC[C@]4(CO)CC[C@]32C)[C@@]1(C)CCCN        growth    13

Please look at the following compound next.
Enter reported growth observed with SF-539 CNS for OCCCC1CCN(C(Cc2ccccc2)c2ccccc2)CC1 (stereo not drawn)
85.6

---

Kindly supply the reported growth values for the records listed here.
tested on: NCI-H226 lung; experiment: NCI-60 one-dose screen, 48 h (100 = growth as untreated, 0 = no growth, -100 = all killed); conditions: 10 µM unless noted
Compounds without any hit were thinned out: in the full panel of roughly 83,000, 20% have a hit. The source made the active and inactive calls. Rule for the calls: active = growth percent below 10; inactive = the rest.

>>> print(df.to_string())
                 compound  target_entity               val
0  CCc1nc2c(=O)[nH]cnc2o1  NCI-H226 lung  96.4% (inactive)

Provide each entry's growth from the list below.
1. COc1ccc2c(O)c(/C=C3\N=Nc4ccccc43)oc2c1C[C@@H]1CCNC[C@H]1F
2. COc1cccc(/C=C/C(=O)c2cc3c(N)c(C(=O)Nc4ccccc4)sc3nc2C)c1
3. C=C(C)[C@@H]1CC[C@]2(C(=O)OC)CC[C@]3(C)[C@H](CC[C@@H]4[C@@]5(C)C/C(=C/NC(N)=S)C(=O)C(C)(C)[C@@H]5CC[C@]43C)[C@@H]12
4. COc1cc(OC)c2sc(-c3ccc(-n4cncc4-c4ccc(OC)c(OC)c4)cc3)nc2c1
5. O=C1/C(=C/c2ccc(Cl)cc2)COc2ccc(O)c(O)c21

1. 58.3% (inactive)
2. 55.3% (inactive)
3. 86.3% (inactive)
4. 66.7% (inactive)
5. 90.6% (inactive)

Look at each compound and report its growth.
1. CS(=O)(=O)Nc1cc(-c2ccc3ncnc(Nc4ccc5c(cnn5Cc5ccccn5)c4)c3c2)cnc1Cl
2. OCc1cccc(-c2ccc3ncc(-c4nc(NC5CC5)ncc4F)n3c2)c1

["81.3% (inactive)", "2.19% (active)"]

Provide the reported growth of each entry below, same order.
1. O=C1Nc2ccccc2[C@]12CC(c1ccccc1)=NN2
2. CC(C)(C)[Si](C)(C)O[C@H]1C(=O)C=CN2CC=C[C@@H]12
3. COc1cccc(CNc2ncnc3c2ncn3C2OC(CO)C(O)C2O)c1O (stereo not drawn)

1. 77.7% (inactive)
2. 94.4% [100 µM] (inactive)
3. 31.6% (inactive)

Provide growth for all items below, preserving their order.
1. CC12CCC3c4ccccc4CCC3(CO1)C2 (stereo not drawn)
2. C=CC(=O)NCc1ccc(Nc2nccc(-c3ccc(N4CCCC4)c(C#N)c3)n2)cc1

1. 95.8% (inactive)
2. 39.9% (inactive)
